target: UniProtKB P14780
Sequence (P14780 whole entry): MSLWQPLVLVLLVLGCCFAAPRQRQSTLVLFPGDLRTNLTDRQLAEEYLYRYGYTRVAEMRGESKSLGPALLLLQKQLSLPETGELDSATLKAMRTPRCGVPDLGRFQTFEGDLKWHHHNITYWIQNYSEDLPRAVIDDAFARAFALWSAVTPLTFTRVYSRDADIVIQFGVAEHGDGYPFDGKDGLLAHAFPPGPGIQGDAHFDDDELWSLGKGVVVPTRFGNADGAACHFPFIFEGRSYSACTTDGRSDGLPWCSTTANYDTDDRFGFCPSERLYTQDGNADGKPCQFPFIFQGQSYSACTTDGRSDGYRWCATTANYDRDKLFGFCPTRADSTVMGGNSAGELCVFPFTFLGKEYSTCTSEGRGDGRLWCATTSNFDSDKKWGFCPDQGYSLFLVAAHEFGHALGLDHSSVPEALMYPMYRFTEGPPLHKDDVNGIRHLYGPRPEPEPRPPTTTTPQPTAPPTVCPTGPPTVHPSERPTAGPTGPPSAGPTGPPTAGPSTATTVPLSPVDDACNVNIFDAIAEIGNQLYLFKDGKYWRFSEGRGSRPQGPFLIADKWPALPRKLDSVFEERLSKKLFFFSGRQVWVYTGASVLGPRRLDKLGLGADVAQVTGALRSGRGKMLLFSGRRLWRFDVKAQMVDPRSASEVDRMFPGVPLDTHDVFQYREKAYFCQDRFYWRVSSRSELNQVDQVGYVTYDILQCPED
measure.name: IC50 (nM)
Provide only the numeric value, understood in nM.

(Q) What does the data say about its IC50? Entry: CCC[C@@H]([C@@H](Cc1ccc(C)s1)C(=O)N[C@@H](CCC/N=C(/N)NS(=O)(=O)c1ccccn1)C(=O)Nc1nccs1)N(O)C=O
(A) 379

(Q) Also, CC(C)C[C@@H](C(=O)N[C@H](C(=O)Nc1nccs1)[C@H](C)CC/N=C(/N)N[N+](=O)[O-])[C@H](C)N(O)C=O please.
(A) 19

(Q) Okay, and CCC[C@@H]([C@@H](CC(C)C)C(=O)N[C@H](C(=O)Nc1nccs1)[C@H](C)CC/N=C(/N)N[N+](=O)[O-])N(O)C=O ?
(A) 13

(Q) Repeat with CC1CCC(C[C@@H](C(=O)N[C@@H](CCC/N=C(/N)N[N+](=O)[O-])C(=O)Nc2nccs2)[C@H](C(C)C)N(O)C=O)CC1 (stereo not given in full)
(A) 35

(Q) How about this molecule: CCC[C@@H]([C@@H](CC1CCCCC1)C(=O)N[C@@H](CCC/N=C(/N)N[N+](=O)[O-])C(=O)Nc1nccs1)N(O)C=O
(A) 55

(Q) And then CCC[C@@H]([C@@H](CC1CCC(C)CC1)C(=O)N[C@@H](CCC/N=C(/N)N[N+](=O)[O-])C(=O)Nc1nccs1)N(O)C=O (stereo not given in full) , what is it?
(A) 115

(Q) Another molecule to check: CCC[C@@H]([C@@H](CC(C)C)C(=O)N[C@@H](CCC/N=C(/N)N[N+](=O)[O-])C(=O)Nc1nccs1)N(O)C=O
(A) 13

(Q) Okay, and CC(C)C[C@@H](C(=O)N[C@H](C(=O)Nc1nccs1)[C@H](C)CC/N=C(/N)NS(C)(=O)=O)[C@H](C(C)C)N(O)C=O ?
(A) 12

(Q) And then CCC[C@@H]([C@@H](Cc1ccc(C)s1)C(=O)N[C@@H](CCC/N=C(/N)N[N+](=O)[O-])C(=O)Nc1nccs1)N(O)C=O , what is it?
(A) 190

(Q) What do we get for CC(C)C[C@@H](C(=O)N[C@@H](CCC/N=C(/N)N[N+](=O)[O-])C(=O)Nc1nccs1)[C@H](Cc1ccccc1)N(O)C=O ?
(A) 11

(Q) Follow-up item: NC(=NCCC[C@H](NC(=O)[C@H](CC1CCCCC1)[C@H](C1CC1)N(O)C=O)C(=O)Nc1nccs1)N[N+](=O)[O-]
(A) 602

(Q) Subsequent entry: CCC[C@@H]([C@@H](CC(C)C)C(=O)N[C@@H](CCC/N=C(/N)NS(=O)(=O)c1ccccn1)C(=O)Nc1nccs1)N(O)C=O
(A) 43

(Q) Let us now turn to N/C(=N/CCC[C@H](NC(=O)[C@H](CC1CCCCC1)[C@H](CCC(F)(F)F)N(O)C=O)C(=O)Nc1nccs1)N[N+](=O)[O-]
(A) 49

(Q) Same read-out for CC(C)C[C@@H](C(=O)N[C@H](C(=O)Nc1nccs1)[C@H](C)CC/N=C(/N)NS(C)(=O)=O)[C@H](C)N(O)C=O ?
(A) 8.5

(Q) CCC[C@@H]([C@@H](CC(C)C)C(=O)N[C@@H](CCCN=C(N)NS(C)(=O)=O)C(=O)Nc1nccs1)N(O)C=O , same question.
(A) 51

Origin of measurements: ChEMBL document CHEMBL1134293
